- Test system: Sindbis virus TE/5'2J-GFP
- ASSAY INFO: percent infected (GFP+ in RFP+ ISG-expressing cells); higher = more infection (less antiviral activity)
- PARTICULARS: experiment: confirmatory screen 2; BHK/NZAP-Zeo (ZAP)
RECORDED ENDPOINT: percent infected (%)
Enter your answer as a number in %; do not include the unit.

Observe how each entry below is paired with its result.
SEQUENCE | RECORDED ENDPOINT | NUMERIC VALUE
MSSAIERKSLDPSEEPVDEVLQIPPSLLTCGGCQQNIGDRYFLKAIDQYWHEDCLSCDLCGCRLGEVGRRLYYKLGRKLCRRDYLRLFGQDGLCASCDKRIRAYEMTMRVKDKVYHLECFKCAACQKHFCVGDRYLLINSDIVCEQDIYEWTKINGMI [LMO2] | percent infected | 94.2
MSSWSRQRPKSPGGIQPHVSRTLFLLLLLAASAWGVTLSPKDCQVFRSDHGSSISCQPPAEIPGYLPADTVHLAVEFFNLTHLPANLLQGASKLQELHLSSNGLESLSPEFLRPVPQLRVLDLTRNALTGLPPGLFQASATLDTLVLKENQLEVLEVSWLHGLKALGHLDLSGNRLRKLPPGLLANFTLLRTLDLGENQLETLPPDLLRGPLQLERLHLEGNKLQVLGKDLLLPQPDLRYLFLNGNKLARVAAGAFQGLRQLDMLDLSNNSLASVPEGLWASLGQPNWDMRDGFDISGNPWICDQNLSDLYRWLQAQKDKMFSQNDTRCAGPEAVKGQTLLAVAKSQ [LRG1] | percent infected | 94.9
MMAQSKANGSHYALTAIGLGMLVLGVIMAMWNLVPGFSAAEKPTAQGSNKTEVGGGILKSKTFSVAYVLVGAGVMLLLLSICLSIRDKRKQRQGEDLAHVQHPTGAGPHAQEEDSQEEEEEDEEAASRYYVPSYEEVMNTNYSEARGEEQNPRLSISLPSYESLTGLDETTPTSTRADVEASPGNPPDRQNSKLAKRLKPLKVRRIKSEKLHLKDFRINLPDKNVPPPSIEPLTPPPQYDEVQEKAPDTRPPD [TMEM51] | percent infected | 94.9
MPITRMRMRPWLEMQINSNQIPGLIWINKEEMIFQIPWKHAAKHGWDINKDACLFRSWAIHTGRYKAGEKEPDPKTWKANFRCAMNSLPDIEEVKDQSRNKGSSAVRVYRMLPPLTKNQRKERKSKSSRDAKSKAKRKSCGDSSPDTFSDGLSSSTLPDDHSSYTVPGYMQDLEVEQALTPALSPCAVSSTLPDWHIPVEVVPDSTSDLYNFQVSPMPSTSEATTDEDEEGKLPEDIMKLLEQSEWQPTNVDGKGYLLNEPGVQPTSVYGDFSCKEEPEIDSPGGDIGLSLQRVFTDLKNMDATWLDSLLTPVRLPSIQAIPCAP [IRF1] | percent infected | 1.14
MHLCGGNGLLTQTDPKEQQRQLKKQKNRAAAQRSRQKHTDKADALHQQHESLEKDNLALRKEIQSLQAELAWWSRTLHVHERLCPMDCASCSAPGLLGCWDQAEGLLGPGPQGQHGCREQLELFQTPGSCYPAQPLSPGPQPHDSPSLLQCPLPSLSLGPAVVAEPPVQLSPSPLLFASHTGSSLQGSSSKLSALQPSLTAQTAPPQPLELEHPTRGKLGSSPDNPSSALGLARLQSREHKPALSAATWQGLVVDPSPHPLLAFPLLSSAQVHF [BATF2] | percent infected | 94.9
MSSENCFVAENSSLHPESGQENDATSPHFSTRHEGSFQVPVLCAVMNVVFITILIIALIALSVGQYNCPGQYTFSMPSDSHVSSCSEDWVGYQRKCYFISTVKRSWTSAQNACSEHGATLAVIDSEKDMNFLKRYAGREEHWVGLKKEPGHPWKWSNGKEFNNWFNVTGSDKCVFLKNTEVSSMECEKNLYWICNKPYK [CD69] | percent infected | 94.3

Next, consider the following sequence.
Input: What value of percent infected has been reported for the following sequence? MPSLWDRFSSSSTSSSPSSLPRTPTPDRPPRSAWGSATREEGFDRSTSLESSDCESLDSSNSGFGPEEDTAYLDGVSLPDFELLSDPEDEHLCANLMQLLQESLAQARLGSRRPARLLMPSQLVSQVGKELLRLAYSEPCGLRGALLDVCVEQGKSCHSVGQLALDPSLVPTFQLTLVLRLDSRLWPKIQGLFSSANSPFLPGFSQSLTLSTGFRVIKKKLYSSEQLLIEEC [DDIT4]
Output: 95

###

- System: Sindbis virus TE/5'2J-GFP
- ASSAY INFO: percent infected (GFP+ in RFP+ ISG-expressing cells); higher = more infection (less antiviral activity)
- PARTICULARS: experiment: confirmatory screen 2; BHK/NZAP-Zeo (ZAP)
RECORDED ENDPOINT: percent infected (%)
Enter your answer as a number in %; do not include the unit.

SEQUENCE | SUBJECT OF TEST | RECORDED ENDPOINT | NUMERIC VALUE
MLTELEKALNSIIDVYHKYSLIKGNFHAVYRDDLKKLLETECPQYIRKKGADVWFKELDINTDGAVNFQEFLILVIKMGVAAHKKSHEESHKE [S100A8] | Sindbis virus TE/5'2J-GFP | percent infected | 92.4

Next, consider the following sequence.
Input: What value of percent infected has been reported for the following sequence? MRSRLLLSVAHLPTIRETTEEMLLGGPGQEPPPSPSLDDYVRSISRLAQPTSVLDKATAQGQPRPPHRPAQACRKGRPAVSLRDITARFSGQQPTLPMADTVDPLDWLFGESQEKQPSQRDLPRRTGPSAGLWGPHRQMDSSKPMGAPRGRLCEARMPGHSLARPPQDGQQSSDLRSWTFGQSAQAMASRHRPRPSSVLRTLYSHLPVIHEL [C10orf10]
Output: 94.4

###

- Test system: Sindbis virus TE/5'2J-GFP
- ASSAY INFO: percent infected (GFP+ in RFP+ ISG-expressing cells); higher = more infection (less antiviral activity)
- PARTICULARS: experiment: confirmatory screen 2; BHK/NZAP-Zeo (ZAP)
percent infected values by entry
Enter your answer as a number in %; do not include the unit.

Observe how each entry below is paired with its result.
SEQUENCE | NUMERIC VALUE
MALLDVCGAPRGQRPESALPVAGSGRRSDPGHYSFSMRSPELALPRGMQPTEFFQSLGGDGERNVQIEMAHGTTTLAFKFQHGVIAAVDSRASAGSYISALRVNKVIEINPYLLGTMSGCAADCQYWERLLAKECRLYYLRNGERISVSAASKLLSNMMCQYRGMGLSMGSMICGWDKKGPGLYYVDEHGTRLSGNMFSTGSGNTYAYGVMDSGYRPNLSPEEAYDLGRRAIAYATHRDSYSGGVVNMYHMKEDGWVKVESTDVSDLLHQYREANQ [PSMB8] | 95
MERISAFFSSIWDTILTKHQEGIYNTICLGVLLGLPLLVIITLLFICCHCCWSPPGKRGQQPEKNKKKKKKKKKKDEEDLWISAQPKLLQMEKRPSLPV [KIAA0040] | 95.1
MAGIELERCQQQANEVTEIMRNNFGKVLERGVKLAELQQRSDQLLDMSSTFNKTTQNLAQKKCWENIRYRICVGLVVVGVLLIILIVLLVVFLPQSSDSSSAPRTQDAGIASGPGN [VAMP5] | 94.7
MASGRARCTRKLRNWVVEQVESGQFPGVCWDDTAKTMFRIPWKHAGKQDFREDQDAAFFKAWAIFKGKYKEGDTGGPAVWKTRLRCALNKSSEFKEVPERGRMDVAEPYKVYQLLPPGIVSGQPGTQKVPSKRQHSSVSSERKEEEDAMQNCTLSPSVLQDSLNNEEEGASGGAVHSDIGSSSSSSSPEPQEVTDTTEAPFQGDQRSLEFLLPPEPDYSLLLTFIYNGRVVGEAQVQSLDCRLVAEPSGSESSMEQVLFPKPGPLEPTQRLLSQLERGILVASNPRGLFVQRLCPIPISWNAPQAPPGPGPHLLPSNECVELFRTAYFCRDLVRYFQGLGPPPKFQVTLNFWEESHGSSHTPQNLITVKMEQAFARYLLEQTPEQQAAILSLV [IRF9] | 95.5

Next, consider the following sequence.
Input: Param readout= percent infected; system= Sindbis virus TE/5'2J-GFP; entry= MSLRGSLSRLLQTRVHSILKKSVHSVAVIGAPFSQGQKRKGVEHGPAAIREAGLMKRLSSLGCHLKDFGDLSFTPVPKDDLYNNLIVNPRSVGLANQELAEVVSRAVSDGYSCVTLGGDHSLAIGTISGHARHCPDLCVVWVDAHADINTPLTTSSGNLHGQPVSFLLRELQDKVPQLPGFSWIKPCISSASIVYIGLRDVDPPEHFILKNYDIQYFSMRDIDRLGIQKVMERTFDLLIGKRQRPIHLSFDIDAFDPTLAPATGTPVVGGLTYREGMYIAEEIHNTGLLSALDLVEVNPQLATSEEEAKTTANLAVDVIASSFGQTREGGHIVYDQLPTPSSPDESENQARVRI [ARG2] ; returns value.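 Further: Interferon-defective BHK-21 derivatives, ZAP line overexpressing the rat ZAP N-terminal zinc finger domain fused to Zeocin resistance, GFP scored within live singlet TagRFP+ cells.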
Output: 95.5
